Values compiled from the supplement of paper PMC6555819.

Test system: THRa:RXRa (NR concentration 90 nM, RXRa partner concentration 90 nM)
Test: PBM binding z-score (relative to random genomic background probes); higher = stronger binding; sequences stand for … in GC…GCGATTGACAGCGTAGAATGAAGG
Decision: PBM binding z-score compared against 1; not below it gives Criterion met, below it gives Criterion not met.

Reported PBM binding z-score at or above 1? TCTTGTAGATCAATAGAGTTTAAGAAAGTGCGCT
Criterion not met

Entry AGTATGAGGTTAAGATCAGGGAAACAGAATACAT : is its PBM binding z-score no less than 1?
Criterion met

Decide: PBM binding z-score of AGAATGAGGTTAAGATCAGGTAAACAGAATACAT >= 1?
Criterion met

API: above_or_equal(metric=PBM binding z-score, cutoff=1) for item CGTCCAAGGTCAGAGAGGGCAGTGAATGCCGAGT
Criterion met

Is reported PBM binding z-score greater than or equal to 1 here: CAAACTAGGTCCCCGGAAGGTCAAAGTCCGCATG
Criterion met

Check if PBM binding z-score >= 1 (inclusive). Item: ATGGAAAGGTCGAGGTGAGTATAGAGAAAGGGAA
Criterion met

Hello, I need to know if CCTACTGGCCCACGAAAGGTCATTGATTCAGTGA has measured PBM binding z-score not below 1. Thanks!
Criterion met

Has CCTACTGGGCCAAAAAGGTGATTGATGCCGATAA a recorded PBM binding z-score greater than or equal to 1?
Criterion not met

Can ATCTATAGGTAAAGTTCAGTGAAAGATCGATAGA be said to have PBM binding z-score at or above 1?
Criterion not met

Determine whether measured PBM binding z-score meets or exceeds 1 for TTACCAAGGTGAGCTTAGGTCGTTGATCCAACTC
Criterion met

Determine whether this sequence has PBM binding z-score no lower than 1: CCGACTGGCGCAAAGGTTACCATACTCAGTACGA
Criterion met

Would you say TCCTATAGGTAATACAGGTGAAAGTCGGCATCTA shows PBM binding z-score at minimum 1?
Criterion not met

Hi, just wondering whether ACTATTAGTGGAGACGAGGGCAACCGATAGGTTG shows PBM binding z-score of 1 or higher.
Criterion met

Evaluate ACAATGAGGTTATTAAGATCAGGGAATTGCGGTC : PBM binding z-score at minimum 1?
Criterion met

Textbook exercise: given the entry ATACCATGGTGATCGTGAGGTCGTTGATACTAAC , state whether its PBM binding z-score is greater than or equal to 1.
Criterion met

Could you tell me if the measured PBM binding z-score of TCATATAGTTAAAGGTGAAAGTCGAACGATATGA reaches 1 or more?
Criterion met

Answer whether PBM binding z-score of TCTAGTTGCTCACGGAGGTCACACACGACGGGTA is greater than or equal to 1.
Criterion met

Textbook exercise: given the entry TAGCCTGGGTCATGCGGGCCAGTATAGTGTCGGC , state whether its PBM binding z-score is greater than or equal to 1.
Criterion met

In plain terms: is recorded PBM binding z-score at least 1 for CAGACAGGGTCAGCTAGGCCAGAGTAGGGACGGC ?
Criterion met

Test whether the sequence AGAATGAGGTTGCCAAAGATCAGGGAAACGCTTG records PBM binding z-score of 1 or higher.
Criterion not met

Hello, I need to know if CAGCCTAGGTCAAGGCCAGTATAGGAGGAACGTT has measured PBM binding z-score not below 1. Thanks!
Criterion met

Say whether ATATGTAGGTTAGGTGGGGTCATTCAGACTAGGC shows PBM binding z-score of 1 or more.
Criterion met

Is reported PBM binding z-score greater than or equal to 1 here: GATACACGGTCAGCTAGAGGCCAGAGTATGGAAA
Criterion not met

Record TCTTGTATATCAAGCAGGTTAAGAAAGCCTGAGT ; criterion: PBM binding z-score no lower than 1. Met?
Criterion not met

Decide: is the reported value of PBM binding z-score for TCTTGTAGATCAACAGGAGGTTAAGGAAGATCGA equal to or greater than 1?
Criterion not met

Evaluate AGTCAAAGTTCAATAGGTAACGTAAGATTCAGCT : PBM binding z-score at minimum 1?
Criterion met
